Tested on: Calu-1
EXPERIMENTAL DETAILS: Antiproliferative activity against human Calu-1 cells assessed as cell growth inhibition incubated for 3 days by SRB assay
Format: functional, cell-based
STUDY CONDITIONS: Calu-1, 72 h
pIC50: −log10 of the molar value.

[
  {
    "COMPOUND STRUCTURE STRING": "Cc1ccc2c(N)c(C(=O)N[C@H]3CCc4cc(N5CC6CCC(C5)N6)ccc4C3)sc2n1",
    "pIC50": 6.49
  }
]

---

EXPERIMENTAL SYSTEM: Ubiquitin carboxyl-terminal hydrolase 28 (Homo sapiens, UniProt Q96RU2)
Sequence (Q96RU2 whole entry): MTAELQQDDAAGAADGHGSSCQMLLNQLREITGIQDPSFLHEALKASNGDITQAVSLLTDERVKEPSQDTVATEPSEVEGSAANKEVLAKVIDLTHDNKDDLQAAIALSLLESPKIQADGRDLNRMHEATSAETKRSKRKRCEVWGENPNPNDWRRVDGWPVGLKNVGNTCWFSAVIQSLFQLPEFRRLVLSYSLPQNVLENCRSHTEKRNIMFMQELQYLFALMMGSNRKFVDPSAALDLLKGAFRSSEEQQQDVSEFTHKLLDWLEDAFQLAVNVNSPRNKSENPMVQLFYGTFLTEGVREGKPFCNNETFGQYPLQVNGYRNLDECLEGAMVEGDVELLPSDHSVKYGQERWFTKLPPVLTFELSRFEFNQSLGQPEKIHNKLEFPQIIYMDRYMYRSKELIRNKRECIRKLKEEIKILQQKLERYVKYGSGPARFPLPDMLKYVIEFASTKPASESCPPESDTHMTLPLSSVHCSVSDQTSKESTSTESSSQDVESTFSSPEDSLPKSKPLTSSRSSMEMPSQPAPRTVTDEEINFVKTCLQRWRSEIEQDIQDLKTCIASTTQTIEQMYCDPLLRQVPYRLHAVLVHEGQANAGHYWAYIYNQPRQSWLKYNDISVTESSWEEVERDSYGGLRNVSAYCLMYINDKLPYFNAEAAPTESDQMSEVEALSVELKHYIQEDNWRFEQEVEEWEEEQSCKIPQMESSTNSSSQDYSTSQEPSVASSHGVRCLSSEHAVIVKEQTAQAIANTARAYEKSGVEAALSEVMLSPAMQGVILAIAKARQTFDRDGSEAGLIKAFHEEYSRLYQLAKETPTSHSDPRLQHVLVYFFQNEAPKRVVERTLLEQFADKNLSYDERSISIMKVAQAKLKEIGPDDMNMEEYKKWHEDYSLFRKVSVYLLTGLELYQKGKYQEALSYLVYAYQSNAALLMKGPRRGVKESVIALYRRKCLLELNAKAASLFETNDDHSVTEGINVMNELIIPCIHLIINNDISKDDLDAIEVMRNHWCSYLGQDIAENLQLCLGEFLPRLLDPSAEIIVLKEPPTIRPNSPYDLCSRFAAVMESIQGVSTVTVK
MEASURED ENDPOINT: IC50 (nM)

[
  {
    "COMPOUND STRUCTURE STRING": "COc1ccc(-c2cc(NC(=O)c3ccc(S(C)(=O)=O)cc3Cl)ccc2Cl)cc1",
    "SCALE UNIT": "nM",
    "VALUE": 2940
  },
  {
    "COMPOUND STRUCTURE STRING": "CS(=O)(=O)c1ccc(C(=O)Nc2ccc(Cl)c(-c3ccc4c(c3)CNC4)c2)c(Cl)c1",
    "SCALE UNIT": "nM",
    "VALUE": 40
  },
  {
    "COMPOUND STRUCTURE STRING": "CS(=O)(=O)c1ccc(C(=O)Nc2cc(Cl)cc(-c3ccc(CN)cc3)c2)c(Cl)c1",
    "SCALE UNIT": "nM",
    "VALUE": 1130
  },
  {
    "COMPOUND STRUCTURE STRING": "Cc1ccc2c(N)c(C(=O)N[C@H]3CCc4cc(N5CC6CCC(C5)N6)ccc4C3)sc2n1",
    "SCALE UNIT": "nM",
    "VALUE": 110
  },
  {
    "COMPOUND STRUCTURE STRING": "CS(=O)(=O)c1ccc(C(=O)Nc2ccc(Cl)c(-c3ccc(CN)cc3)c2)c(Cl)c1",
    "SCALE UNIT": "nM",
    "VALUE": 360
  },
  {
    "COMPOUND STRUCTURE STRING": "CS(=O)(=O)c1ccc(C(=O)Nc2ccc(Cl)c(-c3ccc(N4CCNCC4)cc3)c2)c(Cl)c1",
    "SCALE UNIT": "nM",
    "VALUE": 4240
  },
  {
    "COMPOUND STRUCTURE STRING": "CS(=O)(=O)c1ccc(C(=O)Nc2ccc(Cl)c(-c3cccc(CN)c3)c2)c(Cl)c1",
    "SCALE UNIT": "nM",
    "VALUE": 150
  }
]
